Exercise: for every item that follows, state its recorded IC50.
Target: human NLRP3 (Homo sapiens, UniProt Q96P20)
Sequence (Q96P20 whole entry): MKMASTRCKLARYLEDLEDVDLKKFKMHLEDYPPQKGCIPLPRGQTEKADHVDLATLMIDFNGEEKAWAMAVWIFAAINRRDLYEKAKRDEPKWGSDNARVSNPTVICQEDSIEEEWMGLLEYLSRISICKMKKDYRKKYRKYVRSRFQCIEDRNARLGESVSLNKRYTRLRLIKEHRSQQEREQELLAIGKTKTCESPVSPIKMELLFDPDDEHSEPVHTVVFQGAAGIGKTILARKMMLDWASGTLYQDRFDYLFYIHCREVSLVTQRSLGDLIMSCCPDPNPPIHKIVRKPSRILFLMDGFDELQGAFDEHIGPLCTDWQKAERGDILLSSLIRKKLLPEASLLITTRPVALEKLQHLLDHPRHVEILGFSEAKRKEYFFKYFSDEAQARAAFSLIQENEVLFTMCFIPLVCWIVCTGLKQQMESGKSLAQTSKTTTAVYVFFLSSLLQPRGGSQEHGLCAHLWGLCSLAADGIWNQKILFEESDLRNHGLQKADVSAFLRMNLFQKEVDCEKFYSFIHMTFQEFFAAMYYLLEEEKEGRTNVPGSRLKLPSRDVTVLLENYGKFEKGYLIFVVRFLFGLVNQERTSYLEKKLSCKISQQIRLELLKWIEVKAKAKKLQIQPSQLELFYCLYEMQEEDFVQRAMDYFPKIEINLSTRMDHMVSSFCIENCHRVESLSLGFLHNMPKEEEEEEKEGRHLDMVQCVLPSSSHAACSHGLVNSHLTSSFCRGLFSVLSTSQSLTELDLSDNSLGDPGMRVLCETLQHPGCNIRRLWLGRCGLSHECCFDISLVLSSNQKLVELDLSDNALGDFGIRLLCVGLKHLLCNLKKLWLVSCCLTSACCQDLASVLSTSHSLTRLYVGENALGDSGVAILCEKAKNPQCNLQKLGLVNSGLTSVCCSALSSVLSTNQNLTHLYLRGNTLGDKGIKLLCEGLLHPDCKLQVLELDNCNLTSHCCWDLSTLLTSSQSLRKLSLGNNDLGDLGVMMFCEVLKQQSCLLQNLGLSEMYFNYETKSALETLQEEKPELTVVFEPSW
Assay: Scintillation Proximity (SPA) NLRP3 Assay, displacement of 3H-MCC950
Type: binding
Details: Table B, activity class; displacement of 3H-MCC950 from human NLRP3
Protocol: Improved NLRP3 binding correlates with increased affinity for NLRP3 protein and, by extension, increased ability to interfere with its function. SPA experiments were conducted in a total volume of 20 μL assay buffer containing 20 mM HEPES pH 7.5, 150 mM NaCl, 5 mM MgCl2, 0.01% (v/v) Tween-20, 0.01% (w/v) bovine serum albumin (BSA) and 100 μM of adenosine diphosphate (ADP). […] Binding data was analyzed 6 hrs post-PVT bead addition to allow sufficient time to reach equilibrium. […]

Recorded IC50 of C[C@H]1CCN(c2nnn[nH]2)C[C@H](NC(=O)N(C)c2ccc(C(F)F)cc2F)C1 (single isomer, unassigned) [18C*] , please. 10 to 50 µM

What do you get for C[C@H]1C[C@@H](NC(=O)N(C)c2c(F)cc(C3CC3)cc2F)[C@@H]2CC[C@H]1N2c1nnn[nH]1 (single isomer, unassigned) [60C*] ? 50 to 100 µM

What do you get for C[C@@H]1C[C@H](NC(=O)N(C)c2ccc(C(F)F)cc2F)[C@H]2CC[C@@H]1N2c1nnn[nH]1 (single isomer, unassigned) [55B*] ? > 100 µM

What do you get for C[C@@H]1CCN(c2nnn[nH]2)C[C@H](NC(=O)N(C)c2ccc(Cl)cn2)C1 (single isomer, unassigned) [28A*] ? 1 to 10 µM

What do you get for C[C@H]1C[C@@H](NC(=O)N(C)c2ccc3nccn3c2)CN(c2nnn[nH]2)C1 [Compound 37A] ? > 100 µM

What do you get for CCN(C(=O)N[C@H]1C[C@@H](C)CCN(c2nnn[nH]2)C1)c1ccc(OC(F)(F)F)cc1 (single isomer, unassigned) [43D*] ? 1 to 10 µM

What do you get for `C[C@H]1CCN(c2nnn[nH]2)C[C@@H](NC(=O)N(C)c2ccc(C(F)(F)F)c(F)c2)C1` ? 1 to 10 µM

What do you get for C[C@H]1CCN(c2nnn[nH]2)C[C@H](NC(=O)N(C)c2ccc(C(F)(F)F)nn2)C1 (single isomer, unassigned) [33C*] ? 50 to 100 µM

Hey, quick one: what's IC50 for each of these?
1. C[C@H]1C[C@H](NC(=O)N(C)c2ccc(OC(F)(F)F)c(F)c2)[C@@H]2CC[C@H]1N2c1nnn[nH]1 (single isomer, unassigned) [51D*]
2. C[C@@H]1C[C@@H](NC(=O)N(C)c2ccc(C3CC3)c(F)c2)[C@H]2CC[C@@H]1N2c1nnn[nH]1 (single isomer, unassigned) [54A*]
3. C[C@@H]1CCN(c2nnn[nH]2)C[C@@H](NC(=O)N(C)c2ccc(OC(F)(F)F)c(F)c2)C1 (single isomer, unassigned) [14B*]
4. C[C@@H]1C[C@H](NC(=O)N(C)c2c(F)cc(C3CC3)cc2F)[C@H]2CC[C@@H]1N2c1nnn[nH]1 (single isomer, unassigned) [60B*]
5. O=C(N[C@@H]1CCCN(c2nnn[nH]2)C1)N(c1ccc(Cl)cc1)C1CC1

1. 10 to 50 µM
2. < 1 µM
3. 1 to 10 µM
4. > 100 µM
5. > 100 µM
